- Test system: PC-3 prostate
- measurement.notes: NCI tumour cell line growth inhibition, 48 h
Quick reference: TGI of the listed items.

A selection of reference data follows.
{"columns": ["molecule", "TGI"],
 "data": [
  ["COC(=O)C1(C(=O)OC)N=C(C)OC1c1ccoc1 (stereo unspecified)", "> 100 µM"],
  ["C1CCC(C(CC2CCCCN2)C2CCCCC2)CC1 (stereo unspecified)", "2.95 µM"],
  ["C/C(=N\\NC(=O)c1ccccc1N)c1ccccc1O", "> 100 µM"],
  ["Nc1nc(CCl)nc(N2CCOCC2)n1", "> 100 µM"],
  ["O=C(Cc1ccc(OCc2ccccc2)cc1)NCc1ccc2c(c1)OCO2", "> 100 µM"]
]}

Now take the following molecule into account.
Q: Answer briefly: TGI recorded on PC-3 prostate for O=C(C1CC1)N1CC[C@@H](Cc2n[nH]c(=O)n2-c2ccc(-c3ccc4occc4c3)cc2)C1
Result: > 100 µM
